Test system: RAW264.7
Assay: Antiinflammatory activity in mouse RAW264.7 cells assessed as inhibition of LPS/IFN-gamma-stimulated nitric oxide production after 17 hrs by Griess assay
Format: functional, cell-based
Details: RAW264.7, 17 h, read-out: pIC50 (converted)
Binarize IC50 at 40 µM; below is met, at or above is not met.

Ask: Check if IC50 falls below 40 µM for COc1ccc(/C=C/C=C/C(=O)c2ccc[nH]2)cc1 .
Result: not met

Ask: What do we get for O=C(/C=C/C=C/c1ccccc1)c1ccccc1 ?
Result: not met

Ask: What do we get for COc1ccc(/C=C/C=C/C(=O)c2ccc(O)c(Cl)c2)cc1 ?
Result: met

Ask: What do we get for COc1ccc(C(=O)/C=C/C=C/c2ccccc2)cc1 ?
Result: not met

Ask: What do we get for COc1ccc(/C=C/C=C/C(=O)c2cc(OC)c(O)c(OC)c2)cc1 ?
Result: met

Ask: What do we get for Cc1ccc(C(=O)/C=C/C=C/c2ccccc2)s1 ?
Result: not met

Ask: What do we get for COc1cc(/C=C/C=C/C(=O)c2ccccc2)cc(OC)c1O ?
Result: not met

Ask: What do we get for COc1ccc(C(=O)/C=C/C=C/c2ccc(N(C)C)cc2)cc1 ?
Result: not met

Ask: What do we get for O=C(/C=C/C=C/c1ccccc1)c1cccc(O)c1 ?
Result: met

Ask: What do we get for COc1ccc(/C=C/C=C/C(=O)c2ccccc2)cc1 ?
Result: not met

Ask: What do we get for Cc1cc(C(=O)/C=C/C=C/c2ccccc2)c(C)o1 ?
Result: not met

Ask: What do we get for CN(C)c1ccc(/C=C/C=C/C(=O)c2ccc(F)cc2)cc1 ?
Result: not met

Ask: What do we get for COc1ccc(/C=C/C=C/C(=O)c2ccc(O)cc2F)cc1 ?
Result: met

Ask: What do we get for COc1ccc(/C=C/C=C/C(=O)c2ccc(OC)c(O)c2)cc1 ?
Result: met

Ask: What do we get for COc1ccc(/C=C/C=C/C(=O)c2ccco2)cc1 ?
Result: met

Ask: What do we get for COc1ccc(/C=C/C=C/C(=O)c2cc(C)oc2C)cc1 ?
Result: not met

Ask: What do we get for COc1ccc(C(=O)/C=C/C=C/c2ccc(Cl)cc2)cc1 ?
Result: not met

Ask: What do we get for O=C(/C=C/C=C/c1ccc(O)cc1)c1ccc(F)cc1 ?
Result: met

Ask: What do we get for Cc1ccc(C(=O)/C=C/C=C/c2ccc(O)cc2)s1 ?
Result: met

Ask: What do we get for CN(C)c1ccc(/C=C/C=C/C(=O)c2ccccc2)cc1 ?
Result: not met

Ask: What do we get for O=C(/C=C/C=C/c1ccc(O)cc1)c1ccc(O)cc1 ?
Result: met

Ask: What do we get for COc1ccc(/C=C/C=C/C(=O)c2cccs2)cc1 ?
Result: not met

Ask: What do we get for COc1ccc(C(=O)/C=C/C=C/c2ccc(O)cc2)c(O)c1 ?
Result: met

Ask: What do we get for O=C(/C=C/C=C/c1ccc(O)cc1)c1ccc(O)cc1O ?
Result: met

###

Provide the recorded IC50 for the entries that follow.
Tested on: RAW264.7
Test: Cytotoxicity against mouse RAW264.7 cells by MTT assay
Assay type: cell-based
Give just the numeric value; µM need not be written.

Ask: Which measured IC50 value corresponds to COc1ccc(/C=C/C=C/C(=O)c2ccc(OC)c(O)c2)cc1 ?
Result: 28.4

Ask: What do we get for COc1ccc(/C=C/C=C/C(=O)c2ccc(O)c(Cl)c2)cc1 ?
Result: 67.6

Ask: What do we get for COc1cc(/C=C/C=C/C(=O)c2ccccc2)cc(OC)c1O ?
Result: 28.7

Ask: What do we get for O=C(/C=C/C=C/c1ccccc1)c1cccc(O)c1 ?
Result: 48.7

Ask: What do we get for COc1ccc(/C=C/C=C/C(=O)c2cc(OC)c(O)c(OC)c2)cc1 ?
Result: 58.6

Ask: What do we get for O=C(/C=C/C=C/c1ccc(O)cc1)c1ccc(F)cc1 ?
Result: 45.5

###

System: RAW264.7
Test: Cytotoxicity against mouse RAW264.7 cells by MTT assay
Type: cell-based
Provide the recorded pIC50 for the entries that follow.
Recall that pIC50 is obtained by taking minus log10 of the concentration measured in molar.

Ask: Which measured pIC50 value corresponds to Cc1ccc(C(=O)/C=C/C=C/c2ccc(O)cc2)s1 ?
Result: 4.55

Ask: What do we get for COc1ccc(C(=O)/C=C/C=C/c2ccc(Cl)cc2)cc1 ?
Result: 4.10

Ask: What do we get for O=C(/C=C/C=C/c1ccccc1)c1ccccc1 ?
Result: 4.35

Ask: What do we get for COc1ccc(/C=C/C=C/C(=O)c2ccc(O)cc2F)cc1 ?
Result: 4.22

Ask: What do we get for COc1ccc(/C=C/C=C/C(=O)c2ccco2)cc1 ?
Result: 4.12

Ask: What do we get for COc1cc(/C=C/C=C/C(=O)c2ccc(F)cc2)cc(OC)c1O ?
Result: 5.30

Ask: What do we get for COc1ccc(/C=C/C=C/C(=O)c2cccs2)cc1 ?
Result: 4.16

The reported measurements were obtained from ChEMBL document CHEMBL3745664.
